binders and their reported IC50(pM), hIL-4 Blocking Activity by Reporter Gene Assay
- study-target: human IL-4Rα on cells (human, UniProt P24394 26-825)
- measurement-description: cell-based or functional assay
Kindly provide the numeric value in pM only, without the unit symbol.

| binder | unit-descriptor | experimental-value |
| --- | --- | --- |
| m8 (antibody, human IgG4 S228P, kappa, V domains shown, also called m8 molecule; anti-IL-4R antibody m8) VH: QVQLVQSGAEVKKPGASVKVSCKASGYTFTTYYIYWVRQAPGQGLEWMGGSNPSTGGTLDNEKFKTRVTMTVDKSTSTAYMELSSLRSEDTAVYYCTRSGRYAPFTYWGQGTLVTVSS VL: DIQMTQSPSSLSASVGDRVTITCKASQDVSTSVAWYQQKPGKAPKLLIYSASYRFTGVPSRFSGSGSGTDFTFTISSLQPEDFATYYCQHYSTTPFTFGQGTKLEIKR | pM | 16.4 |
| m21 (antibody, V domains shown, captured by anti-human Fc); also called m21 molecule) VH: QVQLVQSGAEVKKPGASVKVSCKASGYTFTTYYIYWVRQAPGQGLEWMGGSNPSTGGTLENEKFKTRVTMTVDKSTSTAYMELSSLRSEDTAVYYCTRSGRYAPFTYWGQGTLVTVSS VL: DIQMTQSPSSLSASVGDRVTITCKASQDVSTSVAWYQQKPGKAPKLLIYSASYRFTGVPSRFSGSGSGTDFTFTISSLQPEDFATYYCVHYSTTPFTFGQGTKLEIK | pM | 286 |
| m27 (antibody, V domains shown, captured by anti-human Fc); also called m27 molecule) VH: QVQLVQSGAEVKKPGASVKVSCKASGYTFTTYYIYWVRQAPGQGLEWMGGSNPSTGGTLENEKFKTRVTMTVDKSTSTAYMELSSLRSEDTAVYYCTRSGRYATFTYWGQGTLVTVSS VL: DIQMTQSPSSLSASVGDRVTITCKASQDVSTSVAWYQQKPGKAPKLLIYSASYRFTGVPSRFSGSGSGTDFTFTISSLQPEDFATYYCVHYSTTPFTFGQGTKLEIK | pM | 249 |

Alright, here's another binder for you.
Complete the entry with IC50(pM), hIL-4 Blocking Activity by Reporter Gene Assay for Dupilumab (antibody, V domains shown) VH: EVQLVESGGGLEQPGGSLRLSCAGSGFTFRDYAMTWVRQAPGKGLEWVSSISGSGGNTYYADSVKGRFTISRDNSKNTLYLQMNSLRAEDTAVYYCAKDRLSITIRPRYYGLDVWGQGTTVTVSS VL: DIVMTQSPLSLPVTPGEPASISCRSSQSLLYSIGYNYLDWYLQKSGQSPQLLIYLGSNRASGVPDRFSGSGSGTDFTLKISRVEAEDVGFYYCMQALQTPYTFGQGTKLEIKR
201

Measured values drawn from patent EP4814012A1 for this set.
